Each item that follows carries a reported TGI.
System: SNB-19 CNS
Assay: NCI tumour cell line growth inhibition, 48 h
PROPERTY_MEASURED: TGI

# MOLECULE, PROPERTY_MEASURED, ENDPOINT_RESULT
data = [
    ("COc1ccc(N=C2C(=Nc3ccc(OC)cc3)N(S(=O)(=O)c3ccccc3)C(=S)N2c2ccccc2)cc1", "TGI", "> 100 µM"),
    ("O=c1c2ccccc2n2n1CC(O)C2 (stereo unspecified)", "TGI", "> 100 µM"),
    ("NNC(=S)N/N=C(/C(=O)Nc1cc(Cl)ccc1Cl)C1C(=O)Nc2ccccc2S1=O (stereo unspecified)", "TGI", "> 100 µM"),
    ("O=C(O)CCSCc1ccc(I)cc1", "TGI", "> 100 µM"),
    ("CN1C(=O)N/C(=C\\c2ccc(S(=O)(=O)N/N=C\\C(O)C(O)C(O)CO)cc2)C1=O (stereo unspecified)", "TGI", "> 100 µM"),
    ("O=C(Nc1ccc(Cl)cc1F)c1cc(I)ccc1O", "TGI", "92 µM"),
    ("O=C1C(c2c(O)[nH]c3ccc(S(=O)(=O)O)cc23)=Nc2ccc(Br)cc21", "TGI", "> 100 µM"),
    ("CCOC(=O)c1c2c(n(Cc3ccccc3)c1C)-c1ccccc1C(=O)C2=O", "TGI", "29.4 µM"),
    ("O=C(O)CCC(=O)c1ccc2ccc3cccc4ccc1c2c34", "TGI", "> 100 µM"),
    ("COC(=O)[C@]12CSC[C@H]1C[C@H](c1ccccc1OC)N2", "TGI", "> 100 µM"),
    ("NCCCCN(CCCN)C(=O)c1ccccc1", "TGI", "> 100 µM"),
]

---

Listed here are molecules together with their documented TGI.
Test system: SF-295 CNS
Test: NCI tumour cell line growth inhibition, 48 h

# MOLECULE, TGI
rows = [
    ("O=c1cccccc1NCCCCCCNc1cccccc1=O", "> 100 µM"),
    ("O=C(CN1CCN(c2ccc(Cl)cc2)CC1)N1CCN(c2nnc(-c3ccc(Cl)cc3)c(-c3ccc(Cl)cc3)n2)CC1", "> 100 µM"),
    ("N#C/C(=C\\c1ccc(O)c(O)c1)C(=O)NC1CCC(CC2CCC(NC(=O)/C(C#N)=C/c3ccc(O)c(O)c3)CC2)CC1 (stereo unspecified)", "3.55 µM"),
    ("CN(C)c1ccc(/C=C2\\N=C(c3ccc([N+](=O)[O-])cc3)OC2=O)cc1", "> 100 µM"),
    ("COc1cc(N/N=C/C#N)cc(OC)c1OC", "> 10 µM"),
    ("O=P1(c2ccccc2)c2ccccc2CCc2ccccc21", "> 100 µM"),
]

---

Tested on: RPMI-8226 leukemia
Assay: NCI tumour cell line growth inhibition, 48 h
PROPERTY_MEASURED: log10(TGI) (log10 of the value in µM)

# MOLECULE, log10(TGI)
rows = [
    ("O=C(c1cc2ccccc2o1)N(Cc1ccccc1)c1ccccc1", 1.70),
    ("C=C1CC[C@@H](Br)C(C)(C)[C@]12CCC(C)(O)C(Cl)C2 (stereo not given in full)", 1.60),
    ("COc1cc(/C=C/C(=O)OCCc2ccccc2)ccc1O", 1.82),
    ("Cc1ccc(C[P+]2(c3ccccc3)CCCCC2)cc1", 1.67),
    ("COc1cc(N/N=C/C#N)cc(OC)c1OC", 0.75),
    ("C=C1CCCCCCCCCCC12SCCC2CCCCSC (stereo not given)", 1.66),
    ("ClCCN1CCOC1=Nc1ccc2c(c1)CCCC2", 1.42),
    ("CN(C)c1ncnc2c1nnn2C1OC(CO)C(O)C1O (stereo not given)", 0.04),
]

---

System: KM12 colon
Assay: NCI tumour cell line growth inhibition, 48 h; in the data active = GI50 below about 0.43 µM; inactive = the rest
Possible outcomes: 1 (active), -1 (inactive)

# MOL, CLASS
records = [
    ("CC(C)(C#N)c1cc(F)cc(C(=O)Nc2cc(Nc3ncccc3-c3ncnc4nc[nH]c34)ccc2F)c1", -1),
    ("CC/C(=C(/CC)c1ccc([O-])cc1)c1ccc([O-])cc1.CC/C(=C(\\CC)c1ccc([O-])cc1)c1ccc([O-])cc1.O=C([CH-]C(=O)c1ccccc1)c1ccccc1.O=C([CH-]C(=O)c1ccccc1)c1ccccc1.O=C([CH-]C(=O)c1ccccc1)c1ccccc1.O=C([CH-]C(=O)c1ccccc1)c1ccccc1.[Ti+4].[Ti+4]", -1),
    ("CN1CCN(Cc2ccc(NC(=O)c3cncc(C#Cc4cncc5ncccc45)c3)cc2C(F)(F)F)CC1", 1),
    ("COC(=O)c1ccc(NC(=O)Nc2ccc3oc(=O)c4ccccc4c3c2)cc1", -1),
    ("CC1CCN(CCCCCOc2ccc3oc4cc(Cl)ccc4c(=O)c3c2)CC1", -1),
    ("Cn1cc(C2=C(c3cccnc3)C(=O)NC2=O)c2ccccc21", -1),
    ("O=C(c1ccco1)c1nc2cc(F)ccc2[n+]([O-])c1C(F)(F)F", -1),
]

---

System: IGROV1 ovarian
Assay: NCI tumour cell line growth inhibition, 48 h
Entries annotated with measured TGI
PROPERTY_MEASURED: TGI

# MOL, PROPERTY_MEASURED, ENDPOINT_RESULT
measured = [
    ("CC(=O)O[C@H]1CC[C@@]2(C)C(=CC[C@@H]3[C@@H]2CC[C@]2(C)Nc4c(cnn4S(C)(=O)=O)C[C@@H]32)C1", "TGI", "> 100 µM"),
    ("CC/C(=C(/CC)c1ccc([O-])cc1)c1ccc([O-])cc1.CC/C(=C(\\CC)c1ccc([O-])cc1)c1ccc([O-])cc1.O=C([CH-]C(=O)c1ccccc1)c1ccccc1.O=C([CH-]C(=O)c1ccccc1)c1ccccc1.O=C([CH-]C(=O)c1ccccc1)c1ccccc1.O=C([CH-]C(=O)c1ccccc1)c1ccccc1.[Ti+4].[Ti+4]", "TGI", "> 100 µM"),
    ("Fc1ccc(OCc2nc3cc(C(F)(F)F)ccc3nc2-c2ccccc2)cc1", "TGI", "> 100 µM"),
    ("CO/N=C(/C(=O)N(C(=O)/C(=N/OC)c1csc(NC(c2ccccc2)(c2ccccc2)c2ccccc2)n1)n1cnn(CC(=O)OC(C)(C)C)c1=O)c1csc(NC(c2ccccc2)(c2ccccc2)c2ccccc2)n1", "TGI", "> 10 µM"),
]

---

TGI: recorded values
Test system: ACHN renal
Test: NCI tumour cell line growth inhibition, 48 h

# MOLECULE, TGI
data = [
    ("O=C1/C(=C/c2ccc(Cl)cc2)N=C(c2ccccc2)N1c1nc2ccccc2s1", "> 100 µM"),
    ("COc1ccc2c(c1)c1c(n2CCN(C)C)-c2cccc(OC)c2CC1", "38.8 µM"),
    ("O=C(CF)N(O)c1ccc(/C=C/c2ccccc2)cc1", "30 µM"),
    ("O=[N+]([O-])c1ccc2c(c1)Nc1c3ccccc3nc3cccc-2c13", "> 60.5 µM"),
    ("CN(C)CCNC(=O)Cn1cc([N+](=O)[O-])c(=O)c2ccccc21", "> 100 µM"),
    ("COc1ccc(N=Nc2c(-c3ccccc3)nn(C(=O)CC(=O)Nc3cccc(Cl)c3)c2-c2ccccc2)cc1", "> 100 µM"),
    ("Cn1c(O)c(C(/C=C/c2ccccc2)=NCCN=C(/C=C/c2ccccc2)c2c(O)n(C)c(=O)n(C)c2=O)c(=O)n(C)c1=O", "> 50 µM"),
    ("c1cc(-c2ccc(-c3ccc(C4=NC5CCCCC5N4)cc3)o2)ccc1C1=NC2CCCCC2N1 (centres undefined)", "5.7 µM"),
    ("CC(C)(C)CC(C)(C)c1cc2c(O)c(c1)Cc1cc(C(C)(C)CC(C)(C)C)cc(c1O)Cc1cc(C(C)(C)CC(C)(C)C)cc(c1O)Cc1cc(C(C)(C)CC(C)(C)C)cc(c1O)Cc1cc(C(C)(C)CC(C)(C)C)cc(c1O)Cc1cc(C(C)(C)CC(C)(C)C)cc(c1O)C2", "> 100 µM"),
    ("C=CC(C=O)C1(O)CCOC(=O)/C1=C\\N (centres undefined)", "> 100 µM"),
    ("O=C(Nc1cccc(Oc2nnc(Cl)c3ccccc23)c1)Nc1ccc(Cl)c(C(F)(F)F)c1", "3.8 µM"),
    ("CN1C(=O)N/C(=C\\c2ccc(S(=O)(=O)N/N=C\\C(O)C(O)C(O)CO)cc2)C1=O (centres undefined)", "> 100 µM"),
    ("O=[As](O)(O)c1ccc(N=Nc2ccc([As](=O)(O)O)cc2)cc1", "> 100 µM"),
    ("CCCCOC(=O)NC(Nc1ccc(S(=O)(=O)Nc2ccc(OC)nn2)cc1)(C(F)(F)F)C(F)(F)F", "> 100 µM"),
    ("COc1ccc(C2=NN(C(=O)c3cc(OC)c(OC)c(OC)c3)C(c3ccc(Cl)cc3)C2)cc1OC (centres undefined)", "41.3 µM"),
    ("CC(Oc1ccc(OCC2CCCCC2)cc1)C(N)=O (centres undefined)", "> 100 µM"),
    ("COc1ccc(N=C2C(=Nc3ccc(OC)cc3)N(S(=O)(=O)c3ccccc3)C(=S)N2c2ccccc2)cc1", "> 100 µM"),
    ("COc1ccc(OC)c(C23CCCC(C2)N(C)CC3)c1 (centres undefined)", "78.1 µM"),
    ("C=C1CCCCCCCCCCC12SCCC2CCCCSC (centres undefined)", "38.9 µM"),
]

Ref: PubChem BioAssay (NCI)
